Assay system: T1, Recombinant Human DLL4 (delta-like protein 4) (human, UniProt Q9NR61 27-524)
T1 construct: also called rHuman DLL4; Delta-like 4
Test: ELISA on coated DLL4, Fab at 6.25 nM (2-fold serial dilution)
Metric: ELISA signal
Lab note: record the figure alone, no unit after it.

| Binder | ELISA signal |
| --- | --- |
| Fab VH5-51_IGHD5-18*01>3_IGHJ4*01 G100K/G104T (KT) & V3-4_IGLJ1*01 S52G (Fab, V domains shown, Fab; also called H:KT & L:S52G) VH: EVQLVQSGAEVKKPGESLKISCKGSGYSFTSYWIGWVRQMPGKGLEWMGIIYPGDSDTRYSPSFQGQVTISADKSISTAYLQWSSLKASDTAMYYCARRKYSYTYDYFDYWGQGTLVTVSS VL: QTVVTQEPSFSVSPGGTVTLTCGLSSGSVSTSYYPSWYQQTPGQAPRTLIYGTNTRSSGVPDRFSGSILGNKAALTITGAQADDESDYYCVLYMGSGISYVFGTGTKVTVL | 0.207 |

Query: Need ELISA signal, item Fab VH5-51_IGHD5-18*01>3_IGHJ4*01 G100K/G104T T58D & V3-4_IGLJ1*01 (Fab, V domains shown, Fab; also called H:KT T58D & L:parent) VH: EVQLVQSGAEVKKPGESLKISCKGSGYSFTSYWIGWVRQMPGKGLEWMGIIYPGDSDDRYSPSFQGQVTISADKSISTAYLQWSSLKASDTAMYYCARRKYSYTYDYFDYWGQGTLVTVSS VL: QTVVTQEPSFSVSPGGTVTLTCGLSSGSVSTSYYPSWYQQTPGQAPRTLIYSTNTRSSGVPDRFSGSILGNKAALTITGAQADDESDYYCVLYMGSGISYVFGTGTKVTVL
Response: 0.224

Query: Need ELISA signal, item Fab VH5-51_IGHD5-18*01>3_IGHJ4*01 G100K/G104T T58A & V3-4_IGLJ1*01 (Fab, V domains shown, Fab; also called H:KT T58A & L:parent) VH: EVQLVQSGAEVKKPGESLKISCKGSGYSFTSYWIGWVRQMPGKGLEWMGIIYPGDSDARYSPSFQGQVTISADKSISTAYLQWSSLKASDTAMYYCARRKYSYTYDYFDYWGQGTLVTVSS VL: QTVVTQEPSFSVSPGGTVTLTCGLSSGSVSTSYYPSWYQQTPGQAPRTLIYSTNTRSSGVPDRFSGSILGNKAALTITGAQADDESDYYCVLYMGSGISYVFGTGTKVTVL
Response: 0.249

Query: Need ELISA signal, item Fab VH5-51_IGHD5-18*01>3_IGHJ4*01 G100K/G104T G35V & V3-4_IGLJ1*01 (Fab, V domains shown, Fab; also called H:KT G35V & L:parent) VH: EVQLVQSGAEVKKPGESLKISCKGSGYSFTSYWIVWVRQMPGKGLEWMGIIYPGDSDTRYSPSFQGQVTISADKSISTAYLQWSSLKASDTAMYYCARRKYSYTYDYFDYWGQGTLVTVSS VL: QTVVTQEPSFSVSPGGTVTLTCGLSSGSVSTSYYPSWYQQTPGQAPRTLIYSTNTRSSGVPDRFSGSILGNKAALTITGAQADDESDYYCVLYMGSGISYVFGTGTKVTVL
Response: 0.245

Query: Need ELISA signal, item Fab VH5-51_IGHD5-18*01>3_IGHJ4*01 G100K/G104T G24L & V3-4_IGLJ1*01 (Fab, V domains shown, Fab; also called H:KT G24L & L:parent) VH: EVQLVQSGAEVKKPGESLKISCKLSGYSFTSYWIGWVRQMPGKGLEWMGIIYPGDSDTRYSPSFQGQVTISADKSISTAYLQWSSLKASDTAMYYCARRKYSYTYDYFDYWGQGTLVTVSS VL: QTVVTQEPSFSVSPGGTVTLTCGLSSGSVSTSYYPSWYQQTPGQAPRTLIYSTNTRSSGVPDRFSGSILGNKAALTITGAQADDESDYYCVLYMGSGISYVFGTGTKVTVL
Response: 0.278
